B1: TPR t1 (parent)
chain: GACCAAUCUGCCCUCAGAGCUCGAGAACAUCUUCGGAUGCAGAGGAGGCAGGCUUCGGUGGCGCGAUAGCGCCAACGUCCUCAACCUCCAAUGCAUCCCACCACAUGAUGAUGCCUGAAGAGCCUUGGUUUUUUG

Variants of: B1
Assay: polymerase ribozyme fitness, log enrichment relative to wild type (log ratio); higher = more active; in vitro selection for triplet polymerase activity
// Not satisfied strictly below -4 in polymerase ribozyme fitness (log ratio); Satisfied otherwise

alteration | label_value
G36U G45C C89U U132A | Satisfied
C8G C12G A46U | Satisfied
G48A G71C G117A | Satisfied
C11A C72G A111U | Not satisfied
U78C A91G G93U | Satisfied
C62U A95C G113U G135A | Satisfied
C8G A26G C86G U109C | Not satisfied
C49A U96G | Satisfied
C12G C94G A105C | Not satisfied
C12G C15U G61A | Satisfied
U32A C34G | Not satisfied
A111G G120A G122A | Satisfied
C89U U92C U112G G127U U130A | Satisfied
G36U G48A C70U C82U U133G | Satisfied
A29C A50U C104A C114G | Not satisfied
C40G A46C G51U C62U U87G C115G | Not satisfied
U38A C73U | Satisfied
C72A C123U | Satisfied
C8G C34A U55A C70G C104G G110A | Not satisfied
C56G U78A G117A | Satisfied
A111C G117C | Not satisfied
C8G U14C C79U U87A U112A | Satisfied
C13A A83U | Satisfied
A29U G44U G60A G113U A118G U131G | Not satisfied
A5U C114A | Satisfied
C62U G128C | Satisfied
C98U U116A | Not satisfied
G69C G120C | Satisfied
A6U C76U | Satisfied
G39C A50C C56G G71A G77A A90U U96A | Not satisfied
A29G A91G G113A | Satisfied
U9G G19A A37U C70U U78A | Not satisfied
